In this section we review reported composite z-score values for a set of compounds.
- System: XIP peptide (Xip251-270)
- Protocol Summary: small-molecule binders of XIP peptide, primary screen, biochemical, small-molecule microarray, fluorescence 635/667 nm, 0.5 µg/mL protein (AID 1183)
- Run Conditions: small-molecule microarray binding, fluorescence 635 nm; higher = more signal

Compound: C=CC[C@@]1(C(=O)N(C)C)N=C(c2ccc(OCCCO)cc2)O[C@@H]1c1ccccc1
composite z-score: 0.425
--
Compound: O=C1C2C=CC(C(O)C(c3ccccc3)c3ccccc3)N(Nc3ccccc3)C2C(=O)N1c1ccccc1 (stereo not drawn)
composite z-score: 0.722
--
Compound: CCOC(=O)C1=C[C@@H](C(C)(C)C)N(S(=O)(=O)c2ccc(C)cc2)[C@H]1c1ccccc1Cl
composite z-score: 0.705
--
Compound: CC1(C)OC[C@@]23C=C(Br)[C@@H](C[C@H]12)[C@@]1(CO1)C3=O
composite z-score: 0.0841
--
Compound: CC(C)C[C@@H]1NC(=O)[C@@H]2C[C@H](C(=O)NCCCC[N+](C)(C)C)[C@H](c3ccc(O)cc3)N2C1=O
composite z-score: 0.858
--
Compound: CC#CCO[Si](C#CCCCCCC)(C(C)C)C(C)C
composite z-score: 0.938
--
Compound: CCOC(=O)C[C@H]1[C@H](OC(=O)c2ccc(-c3ccccc3)cc2)[C@@H](NC(=O)c2ccc3ccccc3c2)c2cc(OCCCO)ccc2N1C(=O)c1ccccc1
composite z-score: -0.0506
--
Compound: COCC1=C([C@H](O)CCc2ccccc2)[C@H](CO)n2c(=O)n(-c3ccccc3)c(=O)n2C1
composite z-score: -0.0859
